tested on: 786-0; assay: NCI tumour cell line growth inhibition, 48 h
Active and inactive are the calls of the source. Rule as the data show it: active = GI50 up to about 1.1 µM and inactive = higher.
measurement label: GI50

// known answers, use as guide
[[record]]
compound = "c1ccc(/C(=N/Nc2ccncn2)c2ccccn2)cc1"
measurement_label = "GI50"
recorded_result = "17.8 µM (inactive)"

[[record]]
compound = "Cc1ccc(NC(=O)c2nc(S)nc(N)c2-c2ccccc2C)cc1C"
measurement_label = "GI50"
recorded_result = "> 100 µM (inactive)"

[[record]]
compound = "COc1ccc(N(C(=O)Nc2ccc(Cl)c(Cl)c2)c2ccccc2)cc1"
measurement_label = "GI50"
recorded_result = "> 10 µM (inactive)"

[[record]]
compound = "Cc1nc2nc3c(ncn3COCCO)c(O)n2c1C(c1ccccc1)(c1ccccc1)c1ccccc1"
measurement_label = "GI50"
recorded_result = "17.1 µM (inactive)"

[[record]]
compound = "O=C1CC(c2ccc([N+](=O)[O-])cc2)C2(C(=O)NC(=S)NC2=O)C(c2ccc([N+](=O)[O-])cc2)C1 (stereo not given)"
measurement_label = "GI50"
recorded_result = "27.7 µM (inactive)"

[[record]]
compound = "O=C(/C=C/c1ccccc1F)c1ccc(Cl)c(Cl)c1"
measurement_label = "GI50"
recorded_result = "17.3 µM (inactive)"

[[record]]
compound = "COCOc1ccc(C2(O)Oc3cc(OCOC)ccc3C2C)c(O)c1 (stereo not given)"
measurement_label = "GI50"
recorded_result = "17.8 µM (inactive)"

[[record]]
compound = "COc1cc(C2c3cc4c(cc3[C@@H](N(C)C)[C@H]3COC(=O)C23)OCO4)cc(OC)c1O (stereo not given in full)"
measurement_label = "GI50"
recorded_result = "33.2 µM (inactive)"


query: Dear colleague, I am looking for the recorded GI50 of the following compound: O/N=C1\CCc2nonc2\C1=N/Nc1ccccc1
result: > 100 µM (inactive)

query: Dear colleague, I am looking for the recorded GI50 of the following compound: COC(=O)/C=c1/c2ccccc2n2c1c1ccccc1[n+]2C
result: 2.99 µM (inactive)
